Each entry below carries its recorded log10 IC50.
- Tested on: IL-23 mediated STAT3 signalling (DB cells)
- Protocol notes: Functional inhibition of IL-23 mediated STAT3 signalling (phospho-STAT3 Tyr705) in DB cells
- Assay type: cell-based, human
- Settings: EC80 of hIL-23, read-out: IC50 (pSTAT3)
*1 amine or outer side, *2 acyl side, *3 side chain or, on linkers, in order; H or OH if unused. Where a SMILES comes first, the peptide text is derived from it. Bridges are numbered along the chain shown (N, C = ends). [ ]: non-standard residue; d: D form. 2Nal = N[C@@H](Cc1ccc2ccccc2c1)C(=O)O; AEF = NCCOc1ccc(C[C@H](N)C(=O)O)cc1; X1 = O=C(Cc1ccc(CN[*:1])cc1)[*:2]; 3Pal = N[C@@H](Cc1cccnc1)C(=O)O; αMeL = CC(C)C[C@](C)(N)C(=O)O; β3hL = CC(C)C[C@H](N)CC(=O)O; Dab = NCC[C@H](N)C(=O)O; Sar = CNCC(=O)O
All values: log10 IC50 [nM].

Guide cases for log10 IC50, answers given:
INSERT INTO assay_data (molecule, measured_number) VALUES
  ('CC(C)C[C@@H](CC(N)=O)NC(=O)[C@H](Cc1cccnc1)NC(=O)[C@H](CCN)NC(=O)[C@@H]1CCC(=O)NCc2ccc(cc2)CC(=O)N[C@@H](CO)C(=O)N[C@H]2CCC(=O)NCC[C@H](NC(=O)[C@H](CCC(N)=O)NC(=O)[C@H](Cc3c[nH]c4ccccc34)NC2=O)C(=O)N[C@@H](Cc2ccc(OCCN)cc2)C(=O)N[C@@H](Cc2ccc3ccccc3c2)C(=O)N[C@@](C)(CC(C)C)C(=O)N1 [Compound 11] ([X1]SEWQ[Dab][AEF][2Nal][αMeL]E[Dab][3Pal][β3hL]-NH2; lactam 3-6, N-10)', -0.17),
  ('CC(C)C[C@]1(C)NC(=O)[C@H](Cc2ccc3ccccc3c2)NC(=O)[C@H](Cc2ccc(OCCN)cc2)NC(=O)[C@@H]2CCNC(=O)CC[C@H](NC(=O)[C@H](CO)NC(=O)Cc3ccc(cc3)CNC(=O)CC[C@@H](C(=O)N[C@@H](CCN)C(=O)N[C@@](C)(Cc3cccnc3)C(N)=O)NC1=O)C(=O)N[C@@H](Cc1c[nH]c3ccccc13)C(=O)N[C@@H](CCC(N)=O)C(=O)N2', 0.23),
  ('CC(C)C[C@]1(C)NC(=O)[C@H](Cc2ccc3ccccc3c2)NC(=O)[C@H](Cc2ccc(OCCN)cc2)NC(=O)[C@@H]2CCNC(=O)CC[C@H](NC(=O)[C@H](CO)NC(=O)Cc3ccc(cc3)CNC(=O)CC[C@@H](C(=O)N[C@@H](CCN)C(=O)N[C@@H](Cc3cccnc3)C(=O)N(C)CC(N)=O)NC1=O)C(=O)N[C@@H](Cc1c[nH]c3ccccc13)C(=O)N[C@@H](CCC(N)=O)C(=O)N2 [Compound 9] ([X1]SEWQ[Dab][AEF][2Nal][αMeL]E[Dab][3Pal][Sar]-NH2; lactam 3-6, N-10)', -1.60),
  ('CC(C)C[C@]1(C)NC(=O)[C@H](Cc2ccc3ccccc3c2)NC(=O)[C@H](Cc2ccc(OCCN)cc2)NC(=O)[C@@H]2CCNC(=O)CC[C@H](NC(=O)[C@H](CO)NC(=O)Cc3ccc(cc3)CNC(=O)CC[C@@H](C(=O)N[C@@H](CCN)C(=O)N[C@H](Cc3c[nH]cn3)C(N)=O)NC1=O)C(=O)N[C@@H](Cc1c[nH]c3ccccc13)C(=O)N[C@@H](CCC(N)=O)C(=O)N2', 0.83),
  ('CC(C)C[C@]1(C)NC(=O)[C@H](Cc2ccc3ccccc3c2)NC(=O)[C@H](Cc2ccc(OCCN)cc2)NC(=O)[C@@H]2CCNC(=O)CC[C@H](NC(=O)[C@H](CO)NC(=O)Cc3ccc(cc3)CNC(=O)CC[C@@H](C(=O)N[C@@H](CCN)C(=O)NCCCCc3cccnc3)NC1=O)C(=O)N[C@@H](Cc1c[nH]c3ccccc13)C(=O)N[C@@H](CCC(N)=O)C(=O)N2', 0.51);

**Q:** Provide only the value of recorded log10 IC50 for CC(C)C[C@]1(C)NC(=O)[C@H](Cc2ccc3ccccc3c2)NC(=O)[C@H](Cc2ccc(OCCN)cc2)NC(=O)[C@@H]2CCNC(=O)CC[C@H](NC(=O)[C@H](CO)NC(=O)Cc3ccc(cc3)CNC(=O)CC[C@@H](C(=O)N[C@@H](CCN)C(=O)N[C@H](Cc3cccnc3)C(N)=O)NC1=O)C(=O)N[C@@H](Cc1c[nH]c3ccccc13)C(=O)N[C@@H](CCC(N)=O)C(=O)N2
**A:** 0.32

**Q:** Read off the recorded log10 IC50 for CNC(=O)[C@H](Cc1cccnc1)NC(=O)[C@H](CCN)NC(=O)[C@@H]1CCC(=O)NCc2ccc(cc2)CC(=O)N[C@@H](CO)C(=O)N[C@H]2CCC(=O)NCC[C@H](NC(=O)[C@H](CCC(N)=O)NC(=O)[C@H](Cc3c[nH]c4ccccc34)NC2=O)C(=O)N[C@@H](Cc2ccc(OCCN)cc2)C(=O)N[C@@H](Cc2ccc3ccccc3c2)C(=O)N[C@@](C)(CC(C)C)C(=O)N1
**A:** -1.28

**Q:** Read off the recorded log10 IC50 for CC(C)C[C@]1(C)NC(=O)[C@H](Cc2ccc3ccccc3c2)NC(=O)[C@H](Cc2ccc(OCCN)cc2)NC(=O)[C@@H]2CCNC(=O)CC[C@H](NC(=O)[C@H](CO)NC(=O)Cc3ccc(cc3)CNC(=O)CC[C@@H](C(=O)N[C@@H](CCN)C(=O)N(C)[C@@H](Cc3cccnc3)C(N)=O)NC1=O)C(=O)N[C@@H](Cc1c[nH]c3ccccc13)C(=O)N[C@@H](CCC(N)=O)C(=O)N2
**A:** 0.81

**Q:** Annotate the molecule CC(C)C[C@]1(C)NC(=O)[C@H](Cc2ccc3ccccc3c2)NC(=O)[C@H](Cc2ccc(OCCN)cc2)NC(=O)[C@@H]2CCNC(=O)CC[C@H](NC(=O)[C@H](CO)NC(=O)Cc3ccc(cc3)CNC(=O)CC[C@@H](C(=O)N[C@@H](CCN)C(=O)N[C@@H](Cc3cccnc3)C(=O)N[C@H](Cc3c[nH]cn3)C(N)=O)NC1=O)C(=O)N[C@@H](Cc1c[nH]c3ccccc13)C(=O)N[C@@H](CCC(N)=O)C(=O)N2 [Compound 10] ([X1]SEWQ[Dab][AEF][2Nal][αMeL]E[Dab][3Pal][dH]-NH2; lactam 3-6, N-10) with its measured log10 IC50.
**A:** -1.42

**Q:** Return the recorded log10 IC50 value; entry: CC(C)C[C@]1(C)NC(=O)[C@H](Cc2ccc3ccccc3c2)NC(=O)[C@H](Cc2ccc(OCCN)cc2)NC(=O)[C@@H]2CCNC(=O)CC[C@H](NC(=O)[C@H](CO)NC(=O)Cc3ccc(cc3)CNC(=O)CC[C@@H](C(=O)N[C@@H](CCN)C(=O)NCCc3cccnc3)NC1=O)C(=O)N[C@@H](Cc1c[nH]c3ccccc13)C(=O)N[C@@H](CCC(N)=O)C(=O)N2
**A:** -0.89
